# IC50 measurements, system: human FGFR3 wild type enzyme (cytoplasmic domain) (Homo sapiens)
observation-type: IC50 (nM)

The following molecules have reported results that may help.
molecule: C[C@H](Nc1c(-c2nc3c(F)cc(N4CCOCC4)c(F)c3[nH]2)c(=O)[nH]c2cn(C)nc12)c1ncccn1 (single isomer, unassigned)
IC50, nM: 46.5

molecule: CCn1cc2[nH]c(=O)c(-c3nc4c(F)cc(N5CC(OC)C5)cc4[nH]3)c(N[C@@H](C)c3ncccn3)c2n1
IC50, nM: 2.51

molecule: CCC(Nc1c(-c2nc3ccc(N4CCOCC4)cc3[nH]2)c(=O)[nH]c2cn(C)nc12)c1ncccn1 (single isomer, unassigned)
IC50, nM: 0.881

molecule: CC(Nc1c(-c2nc3ccc(OC4CCOCC4)cc3[nH]2)c(=O)[nH]c2cn(C)nc12)c1cocn1 (single isomer, unassigned) [Compound 36]
IC50, nM: 0.839

I. Cc1c(N2CCOCC2)ccc2nc(-c3c(NC(C)c4ncccn4)c4nn(C)cc4[nH]c3=O)[nH]c12 (single isomer, unassigned)
II. CCn1cc2[nH]c(=O)c(-c3nc4ccc(N5CCOCC5)cc4[nH]3)c(NC(C)c3cocn3)c2n1 (single isomer, unassigned) [Compound 4B]
// max by IC50 over [ I , II ] Write down the label attached to your selection. II
(II: 657 nM, I: 0.939 nM)

* * *

- measurement-target: NIH/3T3 cells overexpressing FGFR3 WT-TACC3 fusion protein (Homo sapiens)
- Construct: NIH/3T3 FGFR3 WT-TACC3 CTG (IC50); other: 72-hr incubation, CellTiter Glo, top concentration 10 μM; fused on or other part: Q9Y6A5 (Transforming acidic coiled-coil-containing protein 3)
- assay-text: NIH/3T3 FGFR3 WT-TACC3 cell proliferation assay (CellTiter Glo)
- Format: cell-based
- particulars: 72-hr incubation, top concentration 10 μM, read-out: NIH/3T3 FGFR3 WT-TACC3 CTG (IC50)
- Procedure: NIH/3T3 FGFR3 WT-TACC3 Cell Proliferation Assay In day 1, 90 μL of cell suspension (NIH/3T3 cells overexpressing FGFR3 WT-TACC3 fusion protein) (total 30,000 cells per well in growth medium (DMEM containing 1% Glutamax, 10% FBS and 1% Pen/Strep)) was seeded in a 96-well plate and then incubated overnight at 37° C. and 5% CO2. […]
observation-type: GI50 (µM)

These recorded examples may help you get a feel for the data.
molecule: CC(Nc1c(-c2nc3ccc(N4CCN(CC(F)(F)F)CC4)cc3[nH]2)c(=O)[nH]c2cn(C)nc12)c1ncccn1 (single isomer, unassigned) [Compound 26]
GI50 [µM]: 0.00596

molecule: C[C@H](Nc1c(-c2nc3ccc(N4CCCCC4)cc3[nH]2)c(=O)[nH]c2cn(C)nc12)c1ccccn1 [Compound 33]
GI50 [µM]: 0.258

molecule: COc1cc(N2CCOCC2)cc2[nH]c(-c3c(NC(C)c4ncccn4)c4nn(C)cc4[nH]c3=O)nc12 (single isomer, unassigned) [Compound 51]
GI50 [µM]: 0.0446

P. Cc1c(N2CCOCC2)ccc2nc(-c3c(NC(C)c4ncccn4)c4nn(C)cc4[nH]c3=O)[nH]c12 (single isomer, unassigned) [Compound 28]
Q. COCC(Nc1c(-c2nc3c(F)cc(N4CCOCC4)cc3[nH]2)c(=O)[nH]c2cn(C)nc12)c1ncccn1 (single isomer, unassigned) [Compound 29]
R. CCn1cc2[nH]c(=O)c(-c3nc4cc(C)c(N5CCOCC5)cc4[nH]3)c(N[C@@H](C)c3ncccn3)c2n1 [Compound 5]
Ascending sort, GI50. Give me the labels in the order the question wants. P, R, Q

* * *

- measurement-target: NIH/3T3 cells overexpressing FGFR3 WT-TACC3 fusion protein (Homo sapiens)
- Construct: NIH/3T3 FGFR3 WT-TACC3 CTG (IC50); other: 72-hr incubation, CellTiter Glo, top concentration 10 μM; fused on or other part: Q9Y6A5 (Transforming acidic coiled-coil-containing protein 3)
- assay-text: NIH/3T3 FGFR3 WT-TACC3 cell proliferation assay (CellTiter Glo)
- Type: cell-based
- particulars: 72-hr incubation, top concentration 10 μM, read-out: NIH/3T3 FGFR3 WT-TACC3 CTG (IC50)
observation-type: GI50 (nM)

Worked examples, 5 compounds total:
compound: CCn1cc2[nH]c(=O)c(-c3nc4cnc(N5CCOCC5)cc4[nH]3)c(N[C@@H](C)c3ncccn3)c2n1 [Compound 43]
unit: nM
GI50: 12.6
//
compound: C[C@H](Nc1c(-c2nc3ccc(N4CCO[C@H](C(F)(F)F)C4)cc3[nH]2)c(=O)[nH]c2cn(C)nc12)c1ncccn1 (relative stereo) [Compound 8]
unit: nM
GI50: 6.78
//
compound: CCn1cc2[nH]c(=O)c(-c3nc4c(F)cc(N5CC(OC)C5)cc4[nH]3)c(N[C@@H](C)c3ncccn3)c2n1 [Compound 49]
unit: nM
GI50: 28.1
//
compound: CC(Nc1c(-c2nc3ccc(N4CCOCC4)c(F)c3[nH]2)c(=O)[nH]c2cn(C)nc12)c1ncccn1 (single isomer, unassigned) [Compound 14]
unit: nM
GI50: 4.06
//
compound: CCn1cc2[nH]c(=O)c(-c3nc4cnc(N5CCOCC5)cc4[nH]3)c(N[C@@H](C)c3ccccn3)c2n1 [Compound 47]
unit: nM
GI50: 17.4

1. C[C@H](Nc1c(-c2nc3ccc(C4CCOCC4)c(F)c3[nH]2)c(=O)[nH]c2cn(C)nc12)c1ncccn1 [Compound 13]
2. CCn1cc2[nH]c(=O)c(-c3nc4c(F)cc(N5CCN(C)CC5)cc4[nH]3)c(N[C@@H](C)c3ncccn3)c2n1 [Compound 48]
3. CCn1cc2[nH]c(=O)c(-c3nc4ccc(N5CCOCC5)cc4[nH]3)c(N[C@@H](C)c3ncccn3)c2n1 [Compound 46]
With regard to GI50, arrange the entries in ascending order, please. Return value: ordered labels per request. 2, 3, 1
(2: 9.04 nM, 3: 13.2 nM, 1: 22.1 nM)

* * *

- measurement-target: human FGFR3 wild type enzyme (cytoplasmic domain) (Homo sapiens, UniProt P22607)
- Construct: human FGFR3 wild type enzyme (cytoplasmic domain, from Carna Biosciences); purchased Carna Biosciences
- Sequence (P22607 397-806 limits assumed): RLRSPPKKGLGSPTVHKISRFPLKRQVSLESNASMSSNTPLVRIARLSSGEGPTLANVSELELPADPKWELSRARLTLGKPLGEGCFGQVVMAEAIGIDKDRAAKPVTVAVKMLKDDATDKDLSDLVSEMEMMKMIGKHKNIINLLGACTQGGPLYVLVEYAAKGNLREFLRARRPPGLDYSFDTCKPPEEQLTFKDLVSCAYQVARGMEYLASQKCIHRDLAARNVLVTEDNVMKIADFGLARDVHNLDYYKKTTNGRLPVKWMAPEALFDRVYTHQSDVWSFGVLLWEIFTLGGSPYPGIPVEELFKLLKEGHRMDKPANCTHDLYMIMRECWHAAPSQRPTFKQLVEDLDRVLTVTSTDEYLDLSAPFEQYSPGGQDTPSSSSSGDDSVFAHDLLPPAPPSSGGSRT
- assay-text: FGFR3 wild type mobility shift assay (enzymatic assay)
- Assay type: biochemical
- particulars: 75 μM ATP, 50 minutes at 30° C, Caliper EZ reader II
observation-type: IC50 (nM)

I. C[C@H](Nc1c(-c2nc3ccc(N4CCOC(F)(F)C4)cc3[nH]2)c(=O)[nH]c2cn(C)nc12)c1ncccn1
II. CC(Nc1c(-c2nc3ccc(OC4CCOCC4)cc3[nH]2)c(=O)[nH]c2cn(C)nc12)c1cocn1 (single isomer, unassigned) [Compound 37]
III. CC(Nc1c(-c2nc3ccc(N4CCOCC4)cc3[nH]2)c(=O)[nH]c2cn(C)nc12)c1cscn1 (single isomer, unassigned)
IV. CC(Nc1c(-c2nc3ccc(N4CCCCC4)c(F)c3[nH]2)c(=O)[nH]c2cn(C)nc12)c1ncccn1 (single isomer, unassigned)
// rank the listed compounds by IC50, lowest value first Put the labels in the requested order and write them down. I, IV, III, II

* * *

- measurement-target: NIH/3T3 cells overexpressing FGFR3 WT-TACC3 fusion protein (Homo sapiens, UniProt P22607)
- Construct: NIH/3T3 FGFR3 WT-TACC3 CTG (IC50); other: 72-hr incubation, CellTiter Glo, top concentration 10 μM; fused on or other part: Q9Y6A5 (Transforming acidic coiled-coil-containing protein 3)
- Sequence (P22607 whole entry, change not shown, the tested form may be a part): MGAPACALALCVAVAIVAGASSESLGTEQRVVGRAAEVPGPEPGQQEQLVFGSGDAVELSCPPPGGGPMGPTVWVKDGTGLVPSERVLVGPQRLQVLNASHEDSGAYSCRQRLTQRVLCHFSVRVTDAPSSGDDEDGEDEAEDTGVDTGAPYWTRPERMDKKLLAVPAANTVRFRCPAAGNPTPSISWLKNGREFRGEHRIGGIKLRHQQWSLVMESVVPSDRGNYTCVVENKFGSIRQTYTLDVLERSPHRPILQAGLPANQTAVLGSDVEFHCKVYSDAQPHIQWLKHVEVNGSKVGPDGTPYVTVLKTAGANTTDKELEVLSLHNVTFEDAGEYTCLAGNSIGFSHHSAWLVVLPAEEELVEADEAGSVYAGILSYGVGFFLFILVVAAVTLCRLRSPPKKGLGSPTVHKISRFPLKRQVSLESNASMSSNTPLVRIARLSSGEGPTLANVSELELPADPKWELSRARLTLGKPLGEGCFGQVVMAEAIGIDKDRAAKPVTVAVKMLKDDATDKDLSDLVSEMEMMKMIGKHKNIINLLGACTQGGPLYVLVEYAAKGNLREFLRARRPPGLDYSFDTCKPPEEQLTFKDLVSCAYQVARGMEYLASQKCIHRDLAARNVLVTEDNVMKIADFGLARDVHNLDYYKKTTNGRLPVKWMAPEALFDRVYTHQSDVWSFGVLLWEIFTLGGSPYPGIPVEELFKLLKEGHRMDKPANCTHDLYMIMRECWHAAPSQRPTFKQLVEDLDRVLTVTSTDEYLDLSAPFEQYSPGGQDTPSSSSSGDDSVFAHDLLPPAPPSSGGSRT
- assay-text: NIH/3T3 FGFR3 WT-TACC3 cell proliferation assay (CellTiter Glo)
- Assay type: cell-based
- particulars: 72-hr incubation, top concentration 10 μM, read-out: NIH/3T3 FGFR3 WT-TACC3 CTG (IC50)
observation-type: GI50 (nM)

molecule: CC(Nc1c(-c2nc3ccc(N4CCCCC4)cc3[nH]2)c(=O)[nH]c2cn(C)nc12)c1ncccn1 (single isomer, unassigned)
observation-type: GI50
data-value: 23.3
//
molecule: CC(Nc1c(-c2nc3cc(C(F)(F)F)c(N4CCOCC4)cc3[nH]2)c(=O)[nH]c2cn(C)nc12)c1ncccn1 (racemic) [Compound 19]
observation-type: GI50
data-value: 21.5
//
molecule: CCC(Nc1c(-c2nc3ccc(N4CCOCC4)cc3[nH]2)c(=O)[nH]c2cn(C)nc12)c1ncccn1 (single isomer, unassigned)
observation-type: GI50
data-value: 16.3
//
molecule: CC(Nc1c(-c2nc3cc(C(F)(F)F)c(N4CCOCC4)cc3[nH]2)c(=O)[nH]c2cn(C)nc12)c1ncccn1 (single isomer, unassigned) [Compound 21]
observation-type: GI50
data-value: 17.5
